- assayTarget: T1, insulin-like growth factor II (IGF-II), amino acids 1-67 (human, UniProt P01344 25-91)
- T1 construct: recombinant; also called IGF-II (67aa); IGF2
- T1 sequence (P01344 25-91): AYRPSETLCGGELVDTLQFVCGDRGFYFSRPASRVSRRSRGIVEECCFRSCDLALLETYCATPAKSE
- experimentalProtocol: competition SPR (BIACORE T100), affinity in solution, free ligand read on huIR-A ECD; measurement 2
measureName: pKd
pKd here: minus log base 10 of the concentration, concentration in moles per litre.

Given the binder M0072-C06 Fab (Fab, V domains shown, soluble Fab (sFab); also called R0032-A09) VH: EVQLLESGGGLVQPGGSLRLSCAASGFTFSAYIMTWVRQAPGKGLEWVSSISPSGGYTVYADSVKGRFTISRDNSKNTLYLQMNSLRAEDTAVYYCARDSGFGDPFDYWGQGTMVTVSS VL: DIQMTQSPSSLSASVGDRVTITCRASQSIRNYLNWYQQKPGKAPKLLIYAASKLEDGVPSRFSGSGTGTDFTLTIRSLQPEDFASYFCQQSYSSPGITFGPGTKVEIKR , what is its reported pKd?
8.60
